# Lookup of reported EC50 keyed by entry
Tested on: SK-MEL
Measurement Notes: Cytotoxicity against human SK-MEL cells after 6 days by MTT assay
Assay type: functional
Condition Set: 144 h, read-out: ED50 (the source's name)
Lab book: enter the figure in µg/mL, no units written.

Study these solved cases before continuing.
COc1cc(-c2cc(=O)c3ccc(OC(C)=O)cc3o2)cc(OC)c1O[Si](C)(C)C(C)(C)C | 0.8
O=c1cc(-c2ccc([N+](=O)[O-])cc2)oc2ccc(O)cc12 | 21
O=c1cc(-c2cccc(O)c2)oc2cccc(O)c12 | 3.09
Nc1ccc(-c2cc(=O)c3cc(O)ccc3o2)cc1 | 2.03

Q: Which measured EC50 belongs to `COC(=O)c1c(-c2ccc([N+](=O)[O-])cc2)oc2cc(OC)ccc2c1=O` , tested on SK-MEL?
A: 2.84

Q: Moving on to the next compound: `COC(=O)c1c(-c2ccc(O)cc2)oc2ccc(OC)cc2c1=O`
A: 18.7

Q: Moving on to the next compound: `O=c1cc(-c2ccc([N+](=O)[O-])cc2)oc2c(O)c(O)ccc12`
A: 3.29

Q: Proceed to `CC(=O)Nc1ccc(-c2cc(=O)c3c(OC(C)=O)cc(OC(C)=O)cc3o2)cc1`
A: 14

Q: Another compound to look at: `COc1cc(-c2cc(=O)c3cc(O)ccc3o2)cc(OC)c1OC`
A: 5.87

Q: Try this compound too: `O=c1cc(-c2cccc(O)c2)oc2c(O)c(O)ccc12`
A: 3.66

Q: Now this one: `O=c1cc(-c2ccc([N+](=O)[O-])cc2)oc2cc(O)cc(O)c12`
A: 4.87

Q: Check `CC(=O)Nc1ccc(-c2cc(=O)c3ccc(OC(C)=O)cc3o2)cc1` too.
A: 16.9
